Reference for the values: patent US20130012436A1

targetUnderTest: T1, human IL-23 (human, UniProt Q9NPF7 20-189; P29460 23-328)
T1 construct: also called hIL-23; human recombinant IL-23
T1 sequence (looked up) 1: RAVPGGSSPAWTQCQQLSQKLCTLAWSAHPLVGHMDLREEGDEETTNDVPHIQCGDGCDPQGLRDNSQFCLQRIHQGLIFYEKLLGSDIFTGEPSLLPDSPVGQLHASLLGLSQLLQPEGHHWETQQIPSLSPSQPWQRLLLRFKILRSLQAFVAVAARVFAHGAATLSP
T1 sequence (looked up) 2: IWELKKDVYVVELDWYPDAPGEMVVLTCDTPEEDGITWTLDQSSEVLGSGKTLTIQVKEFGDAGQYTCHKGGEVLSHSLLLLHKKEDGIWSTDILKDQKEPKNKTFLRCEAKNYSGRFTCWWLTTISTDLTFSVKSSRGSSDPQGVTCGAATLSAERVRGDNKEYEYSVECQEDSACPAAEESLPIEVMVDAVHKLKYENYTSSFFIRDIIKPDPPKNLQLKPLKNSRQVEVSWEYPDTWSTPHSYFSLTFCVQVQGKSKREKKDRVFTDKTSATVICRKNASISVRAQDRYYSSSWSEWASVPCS
procedureDetails: SPR, Adnectin captured by anti-His mAb, IL-23 injected
valueKind: pKd
pKd field: float, defined as -log10 of concentration (mol/L).

Worked cases, pKd given:
[[record]]
binder = "1571H03 (designed binder, captured by anti-His mAb) MGVSDVPRDLEVVAATPTSLLISWGHYPLHVRYYRITYGETGGNSPVQEFTVPNRVYTATISGLKPGVDYTITVYAVTYYAQEEYHIIPISINYRTEIDKPSQHHHHHH"
numericresult = 8.47

[[record]]
binder = "1572H05 (designed binder, captured by anti-His mAb) MGVSDVPRDLEVVAATPTSLLISWGHYPLHIRYYRITYGETGGNSPVQEFTVPRSKYTATISGLKPGVDYTITVYAVTYYEQVEYREIPISINYRTEIDKPSQHHHHHH"
numericresult = 9.21

[[record]]
binder = "1550H05 (designed binder, captured by anti-His mAb) MGVSDVPRDLEVVAATPTSLLISWGHYPLHVRYYRITYGETGGNSPVQEFTVPRQIYTATISGLKPGVDYTITVYAVTYYNEADYSQIPISINYRTEIDKPSQHHHHHH"
numericresult = 8.48


Query binder follows.
Ask: Looking for the measured pKd of 1550A07 (designed binder, captured by anti-His mAb) MGVSDVPRDLEVVAATPTSLLISWGHYPMHVRYYRITYGETGGNSPVQEFTVPVPRYTATISGLKPGVDYTITVYAVTYYAQENYKEIPISINYRTEIDKPSQHHHHHH , can you help?
Reply: 8.96
